- Target Desc: α2A adrenergic receptor (Homo sapiens)
- Construct: Eurofins Cerep (contract screening)
- Sequence (P08913 whole entry): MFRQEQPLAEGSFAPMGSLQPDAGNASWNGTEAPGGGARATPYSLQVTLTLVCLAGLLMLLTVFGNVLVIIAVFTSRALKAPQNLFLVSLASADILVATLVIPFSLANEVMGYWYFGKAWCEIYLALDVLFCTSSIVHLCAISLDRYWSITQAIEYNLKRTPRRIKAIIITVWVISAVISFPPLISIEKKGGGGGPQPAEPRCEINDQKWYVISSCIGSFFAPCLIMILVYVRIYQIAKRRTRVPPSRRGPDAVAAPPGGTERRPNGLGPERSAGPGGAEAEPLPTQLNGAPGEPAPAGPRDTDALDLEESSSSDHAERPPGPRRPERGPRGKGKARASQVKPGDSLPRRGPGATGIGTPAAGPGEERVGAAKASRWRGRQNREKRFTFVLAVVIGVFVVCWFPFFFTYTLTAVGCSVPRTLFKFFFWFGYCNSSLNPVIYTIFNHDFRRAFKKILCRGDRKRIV
- Procedure Details: Radioligand binding assay (Eurofins Cerep), [3H]RX 821002 displacement
- Test Conditions: Table 3-6; 3 independent experiments; read-out: Ki (nM ± SEM) a2A-AR
Experimental Readout: Ki (nM)
Answer with a number only, understood to be in nM.

QUERY: API: value(readout= Ki, system= α2A adrenergic receptor (Homo sapiens), query= `COC(=O)CN1CCN(CCc2c[nH]c3cccc(OC)c23)CC1` )
RESULT: 265

----------
- Target Desc: hDOR (Homo sapiens)
- Sequence (P41143 whole entry): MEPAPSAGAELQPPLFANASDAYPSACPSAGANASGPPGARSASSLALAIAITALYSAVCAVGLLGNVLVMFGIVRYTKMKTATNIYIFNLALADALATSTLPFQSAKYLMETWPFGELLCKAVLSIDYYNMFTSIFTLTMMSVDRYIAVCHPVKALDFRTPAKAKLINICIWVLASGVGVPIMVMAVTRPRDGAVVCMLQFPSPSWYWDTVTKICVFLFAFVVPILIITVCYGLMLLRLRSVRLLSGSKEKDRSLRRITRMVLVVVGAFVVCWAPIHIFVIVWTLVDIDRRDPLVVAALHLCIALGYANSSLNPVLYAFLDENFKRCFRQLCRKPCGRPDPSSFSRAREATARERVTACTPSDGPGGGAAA
- Procedure Details: Radioligand binding assay (Eurofins Cerep), [3H]DADLE displacement
- Test Conditions: Table 3-5; 3 independent experiments; read-out: Ki (nM ± SEM) DOR
Experimental Readout: Ki

Illustrative cases are given below, each with its answer.
1) COC(=O)CC1CCN(Cc2c[nH]c3ccccc23)CC1 [Compound 3-58]	> 10000 nM
2) COC(=O)CC1CCN(CCc2c[nH]c3cccc(OC)c23)CC1 [Compound 3-22]	> 10000 nM
3) CO/C=C(/C(=O)OC)C1CCN(CCc2c[nH]c3ccccc23)CC1 [Compound 3-23]	> 10000 nM
4) COC=C(C(=O)OC)C1CCN(Cc2c[nH]c3ccccc23)CC1 [Compound 3-57]	> 10000 nM
5) COC(=O)CC1CCN(CCc2c[nH]c3ccccc23)CC1 [Compound 3-24]	> 10000 nM

Next:
QUERY: // returns reported Ki for input COC(=O)CC1CCN(CC(=O)c2c[nH]c3cccc(OC)c23)CC1 [Compound 3-63]
RESULT: > 10000 nM
